system: OCI-Ly10; test: Inhibition of growth of OCI-Ly10 (ABC-DLBCL cells); format: cell-based; conditions: Homo sapiens, read-out: EC50 1 hour pulse; growth of OCI-Ly10, 1 hour pulse
Readout Kind: EC50 (µM)
One number for each entry, in µM.

Query :: Give me measured EC50, please, for this molecule: C=CC(=O)N1CCC[C@@H](n2nc(-c3ccc(Oc4ccccc4)cc3)c3c(N)ncnc32)C1 [Compound 1]
Result :: 0.05
